Hi there, I'd appreciate the recorded CC50 at 7 days for every entry that follows.
# assay_text: Cytotoxicity, MTT assay in CEM-T4 cells
# test_context: human

Input line: Tell me the measured CC50 at 7 days of CCOP(=O)(C=C(C)C1CCC2(C(=O)O)CCC3(C)C(CCC4C5(C)CCC(O)C(C)(C)C5CCC43C)C12)OCC (stereo not drawn) [Compound 10, 29-Diethoxyphosphorylbetulinic acid] , please.
Output line: 80 µM

Input line: Next: CCOP(=O)(C=C(C)C1CCC2(C(=O)O)CCC3(C)C(CCC4C5(C)CCC(OC(=O)CCC(C)(C)C(=O)O)C(C)(C)C5CCC43C)C12)OCC (stereo not drawn) [Compound 13c]
Output line: > 68 µM

Pending molecule:
Input line: Reported CC50 at 7 days, molecule C=C(CP(=O)(OCC)OCC)C1CCC2(C(=O)O)CCC3(C)C(CCC4C5(C)CCC(O)C(C)(C)C5CCC43C)C12 (stereo not drawn) [Compound 11, 30-Diethoxyphosphorylbetulinic Acid] : ____
Output line: > 42 µM
